System: Plasmodium falciparum
Test: GSK_TCMDC: Inhibition of Plasmodium falciparum Dd2 in whole red blood cells, using parasite LDH activity as an index of growth. Test compounds present at 2uM
Type: functional
measured-quantity: Inhibition

compound=CCCCCCc1cnc2nc(N)nc(N)c2c1C measured_quantity=Inhibition result=20%
compound="CC1CN(Cc2ccccc2)CCN1c1ccc(NC(=O)c2cccs2)cc1.O=C(O)C(F)(F)F (stereo not given)" measured_quantity=Inhibition result=96%
compound=Cc1ccc(-n2ncc(C(=O)Nc3cc(Cl)cc(Cl)c3)c2C2CCNCC2)cc1C.Cl measured_quantity=Inhibition result=77%
compound=NCc1ccc(CNCc2ccc(-c3ccc(-c4nc5cc(C(F)(F)F)ccc5[nH]4)s3)cc2)cc1.O=C(O)C(F)(F)F measured_quantity=Inhibition result=92%
compound=CCOc1ccc(C(=O)Nc2nonc2-c2ccc(OC)c(OC)c2)cc1 measured_quantity=Inhibition result=42%
compound=COc1ccc(NC(=O)c2ccc(-c3ccc(-c4cccnc4)cc3)c(C)c2)cc1OCCN(C)C.Cl measured_quantity=Inhibition result=73%
compound=O=C(Nc1ccc(Cn2ncc(N3CCCNCC3)c(Cl)c2=O)cc1)Nc1ccc(SC(F)(F)F)cc1.O=C(O)C(F)(F)F measured_quantity=Inhibition result=68%
compound=O=C(c1cc2cccc([N+](=O)[O-])c2[nH]1)N1CCC(CCN2CCC(c3c[nH]c4ccccc34)CC2)CC1 measured_quantity=Inhibition result=24%
compound=O=C(Nc1cccc(-c2cccc(-c3nc4cc(C(F)(F)F)ccc4[nH]3)c2)c1)c1cccnc1 measured_quantity=Inhibition result=70%
compound="COc1cc(C(=O)NC2CCc3ccccc32)cc(Cl)c1OC (stereo not given)" measured_quantity=Inhibition result=60%
